The values you see were collected from patent US20250114460A1.

Listing of recorded pIC50 by entry.
System: NCI-H526 cell line
Experiment: Cell viability assay for H526 cell (EZ-Cytox)
Type: cell-based
Settings: Homo sapiens, NCI-H526, 120 h; H526 cells, 5 days, 3000 nM to 0.46 nM
pIC50: −log10 of the molar value.

Noted for COc1cc2c(cc1Nc1ncc3c(n1)N(C1CCCC1)CC(F)(F)C(=O)N3C)CCN(C1CCN(C(=O)CCN3CCN(c4cccc5c4C(=O)N(C4CCC(=O)NC4=O)C5=O)CC3)CC1)C2=O (centres unmarked) [Compound 102] : its pIC50 reads > 6.40

Noted for COc1cc(C(=O)NN2CCN(C3CCN(c4cccc5c4C(=O)N(C4CCC(=O)NC4=O)C5=O)CC3(F)F)CC2)ccc1Nc1ncc2c(n1)N(C(C)C)CC(F)(F)C(=O)N2C (centres unmarked) [Compound 167] : its pIC50 reads > 7.52

Noted for COc1cc(C(=O)NN2CC(N3CCN(c4ccc5c(c4)C(=O)N(C4CCC(=O)NC4=O)C5=O)CC3)C2)ccc1Nc1ncc2c(n1)N(C(C)C)CC(F)(F)C(=O)N2C (centres unmarked) [Compound 159] : its pIC50 reads > 7.52

Noted for COc1cc(N2CCC(CN3CCN(c4cccc5c4C(=O)N(C4CCC(=O)NC4=O)C5=O)CC3)CC2)c(F)cc1Nc1ncc2c(n1)N(C1CCCC1)CC(F)(F)C(=O)N2C (centres unmarked) [Compound 103] : its pIC50 reads > 6.70

Noted for COc1cc(C(=O)NC2CCN(C(=O)CCCNc3cccc4c3C(=O)N(C3CCC(=O)NC3=O)C4=O)CC2)ccc1Nc1ncc2c(n1)N(C1CCCC1)CC(F)(F)C(=O)N2C (centres unmarked) [Compound 25] : its pIC50 reads > 7.30

---

Test system: NCI-H526 cell line
Experiment: Cell viability assay for H526 cell (EZ-Cytox)
Type: cell-based
Details: Homo sapiens, NCI-H526, 120 h; H526 cells, 5 days, 3000 nM to 0.46 nM
Listing of recorded IC50 by entry.

Recorded results for 4 compounds are shown here.
| compound | quantity.measured | recorded.result |
| --- | --- | --- |
| COc1cc(C(=O)N[C@@H]2CCCN(C(=O)CN3CCN(c4cccc5c4C(=O)N(C4CCC(=O)NC4=O)C5=O)CC3)C2)ccc1Nc1ncc2c(n1)N(C1CCCC1)CC(F)(F)C(=O)N2C (stereo partly shown) | IC50 | < 50 nM |
| COc1cc(C(=O)NN2CCC(N3CC4(CCN(c5cccc6c5CN(C5CCC(=O)NC5=O)C6=O)CC4)C3)CC2)ccc1Nc1ncc2c(n1)N(C(C)C)CC(F)(F)C(=O)N2C (stereo not shown) | IC50 | < 50 nM |
| COc1cc(C(=O)NN2CCN(C3CCN(c4cccc5c4C(=O)N(C4CCC(=O)NC4=O)C5=O)C3)CC2)ccc1Nc1ncc2c(n1)N(C1CCCC1)CC(F)(F)C(=O)N2C (stereo not shown) | IC50 | < 30 nM |
| COc1cc(C(=O)N2CCN(C/C=C/CN3CCN(c4ccc5c(c4)C(=O)N(C4CCC(=O)NC4=O)C5=O)CC3)CC2)ccc1Nc1ncc2c(n1)N(C1CCCC1)CC(F)(F)C(=O)N2C (stereo not shown) | IC50 | < 200 nM |

Noted for COc1cc(C(=O)N[C@@H]2CCN(C(=O)COc3cccc4c3C(=O)N(C3CCC(=O)NC3=O)C4=O)C2)ccc1Nc1ncc2c(n1)N(C1CCCC1)CC(F)(F)C(=O)N2C (stereo partly shown) : its IC50 reads < 100 nM

Noted for COc1cc(C(=O)NN2CCC(N3CC4(CCN(c5cccc6c5C(=O)N(C5CCC(=O)NC5=O)C6=O)CC4)C3)CC2)c(F)cc1Nc1ncc2c(n1)N(C1CCCC1)CC(F)(F)C(=O)N2C (stereo not shown) : its IC50 reads < 50 nM

---

Tested on: NCI-H526 cell line
Experiment: Cell viability assay for H526 cell (EZ-Cytox)
Format: cell-based
Conditions: Homo sapiens, NCI-H526, 120 h; H526 cells, 5 days, 3000 nM to 0.46 nM
quantity.measured: IC50

Recorded results for 3 compounds are shown here.
| compound | IC50 |
| --- | --- |
| COc1cc(C(=O)NC2CCN(CCC3CCCN(c4cccc5c4C(=O)N(C4CCC(=O)NC4=O)C5=O)C3)CC2)ccc1Nc1ncc2c(n1)N(C1CCCC1)CC(F)(F)C(=O)N2C (centres unmarked) | < 100 nM |
| COc1cc(C(=O)NN2CCC(N3CCN(c4cccc5c4C(=O)N(C4CCC(=O)NC4=O)C5=O)CC3)C2)ccc1Nc1ncc2c(n1)N(C(C)C)CC(F)(F)C(=O)N2C (centres unmarked) | < 100 nM |
| COc1cc(C(=O)NC2CCN(CC3CN(c4cc5c(cc4F)C(=O)N(C4CCC(=O)NC4=O)C5=O)C3)CC2)ccc1Nc1ncc2c(n1)N(C(C)C)CC(F)(F)C(=O)N2C (centres unmarked) | < 100 nM |

Noted for COc1cc(C(=O)NN2CCC(N3CC4(CCN(c5cccc6c5C(=O)N(C5CCC(=O)NC5=O)C6=O)CC4)C3)CC2)ccc1Nc1ncc2c(n1)N(C1CCCC1)CC(F)(F)C(=O)N2C (centres unmarked) : its IC50 reads < 30 nM

Noted for COc1cc(C(=O)NN2CCN(C(=O)CCC3CCN(c4cccc5c4CN(C4CCC(=O)NC4=O)C5=O)CC3)CC2)ccc1Nc1ncc2c(n1)N(C(C)C)CC(F)(F)C(=O)N2C (centres unmarked) : its IC50 reads < 50 nM

---

System: NCI-H526 cell line
Assay: Cell viability assay for H526 cell (EZ-Cytox)
Type: cell-based
Settings: Homo sapiens, NCI-H526, 120 h; H526 cells, 5 days, 3000 nM to 0.46 nM
Experimental: (1) Culture of NCI-H526 Cell Line (2) Treatment of Compounds of the Present Invention and Method of Cell Viability Assay […] The absorbance of the completely cultured sample was measured by setting the wavelength of a plate reader (BMG Labtech, CLARIOstar Plus) to […], and was measured after shaking for 3 minutes in a plate reader before measurement. […]
quantity.measured: IC50

Noted for Cc1cc(C(=O)NC2CCN(C(=O)CCN3CCN(c4cccc5c4C(=O)N(C4CCC(=O)NC4=O)C5=O)CC3)CC2)ccc1Nc1ncc2c(n1)N(C1CCCC1)CC(F)(F)C(=O)N2C (centres unmarked) : its IC50 reads < 50 nM

Noted for COc1cc(C(=O)NC2CN(CC3CCN(c4cccc5c4C(=O)N(C4CCC(=O)NC4=O)C5=O)CC3)C2)ccc1Nc1ncc2c(n1)N(C1CCCC1)CC(F)(F)C(=O)N2C (centres unmarked) : its IC50 reads < 50 nM

---

Listing of recorded IC50 by entry.
Test system: NCI-H526 cell line
Assay: Cell viability assay for H526 cell (EZ-Cytox)
Format: cell-based
Details: Homo sapiens, NCI-H526, 120 h; H526 cells, 5 days, 3000 nM to 0.46 nM

| molecule | assay.system | IC50 |
| --- | --- | --- |
| COc1cc(C(=O)N2CCC(N3CCN(CCOCCCNc4cccc5c4C(=O)N(C4CCC(=O)NC4=O)C5=O)CC3)CC2)c(F)cc1Nc1ncc2c(n1)N(C1CCCC1)CC(F)(F)C(=O)N2C (stereo not shown) | NCI-H526 cell line | < 30 nM |
| COc1cc(C(=O)NC2CCC(N(C)C3CCN(c4cccc5c4C(=O)N(C4CCC(=O)NC4=O)C5=O)CC3)C2)ccc1Nc1ncc2c(n1)N(C(C)C)CC(F)(F)C(=O)N2C (stereo not shown) | NCI-H526 cell line | < 30 nM |
| COc1cc(C(=O)N2CCC(CCN3CCN(c4ccc5c(c4)C(=O)N(C4CCC(=O)NC4=O)C5=O)CC3)CC2)ccc1Nc1ncc2c(n1)N(C1CCCC1)CC(F)(F)C(=O)N2C (stereo not shown) | NCI-H526 cell line | < 400 nM |

Alright, here's another molecule for you.
The measured IC50 that COc1cc(C(=O)NN2CCC(CN3CCN(c4cccc5c4C(=O)N(C4CCC(=O)NC4=O)C5=O)CC3)CC2)ccc1Nc1ncc2c(n1)N(C1CCCC1)CC(F)(F)C(=O)N2C (stereo not shown) showed for NCI-H526 cell line is < 30 nM

---

Listing of recorded pIC50 by entry.
System: NCI-H526 cell line
Test: Cell viability assay for H526 cell (EZ-Cytox)
Format: cell-based
Conditions: Homo sapiens, NCI-H526, 120 h; H526 cells, 5 days, 3000 nM to 0.46 nM
pIC50: −log10 of the molar value.

Recorded results for 10 compounds are shown here.
| compound | assay.system | recorded.result |
| --- | --- | --- |
| COc1cc(C(=O)N[C@H]2CC[C@H](N3CCN(CCC4CCN(c5cccc6c5C(=O)N(C5CCC(=O)NC5=O)C6=O)CC4)CC3)CC2)c(F)cc1Nc1ncc2c(n1)N(C1CCCC1)CC(F)(F)C(=O)N2C (stereo partly drawn) | NCI-H526 cell line | > 6.70 |
| COc1cc(C(=O)NN2CCC(CCN3CCN(c4cccc5c4C(=O)N(C4CCC(=O)NC4=O)C5=O)CC3)C2)ccc1Nc1ncc2c(n1)N(C1CCCC1)CC(F)(F)C(=O)N2C (stereo not drawn) | NCI-H526 cell line | > 7.30 |
| COc1cc(C(=O)N[C@H]2CC[C@H](N(C)CC3CCN(c4cccc5c4C(=O)N(C4CCC(=O)NC4=O)C5=O)CC3)CC2)ccc1Nc1ncc2c(n1)N(C(C)C)CC(F)(F)C(=O)N2C (stereo partly drawn) | NCI-H526 cell line | > 7.30 |
| COc1cc(C(=O)N[C@H]2CC[C@H](N(C)CCN3CCN(c4ccc5c(c4)C(=O)N(C4CCC(=O)NC4=O)C5=O)CC3)CC2)ccc1Nc1ncc2c(n1)N(C(C)C)CC(F)(F)C(=O)N2C (stereo partly drawn) | NCI-H526 cell line | > 7.30 |
| COc1cc(C(=O)NC2CCN(CCOc3cccc4c3C(=O)N(C3CCC(=O)NC3=O)C4=O)CC2)c(F)cc1Nc1ncc2c(n1)N(C1CCCC1)CC(F)(F)C(=O)N2C (stereo not drawn) | NCI-H526 cell line | > 6.70 |
| COc1cc(C(=O)NC2CCN(C(=O)CCN3CCN(c4cccc5c4C(=O)N(C4CCC(=O)NC4=O)C5=O)CC3)CC2)ccc1Nc1ncc2c(n1)N(C1CCC1)CC(F)(F)C(=O)N2C (stereo not drawn) | NCI-H526 cell line | > 7.00 |
| COc1cc(C(=O)NC2CCN(C(=O)CCN3CCN(c4ccc5c(c4)CN(C4CCC(=O)NC4=O)C5=O)CC3)CC2)ccc1Nc1ncc2c(n1)N(C1CCCC1)CC(F)(F)C(=O)N2C (stereo not drawn) | NCI-H526 cell line | > 7.52 |
| COc1cc(C(=O)NN2CCN(C3CCN(c4ccc5c(c4)C(=O)N(C4CCC(=O)NC4=O)C5=O)C3)CC2)ccc1Nc1ncc2c(n1)N(C1CCCC1)CC(F)(F)C(=O)N2C (stereo not drawn) | NCI-H526 cell line | > 7.52 |
| COc1cc(C(=O)NCCCOCCCOCCOc2cccc3c2CN(C2CCC(=O)NC2=O)C3=O)ccc1Nc1ncc2c(n1)N(C1CCCC1)CC(F)(F)C(=O)N2C (stereo not drawn) | NCI-H526 cell line | > 6.70 |
| COc1cc(C(=O)NC2CCN(C(=O)CC3CN(c4ccc5c(c4)C(=O)N(C4CCC(=O)NC4=O)C5=O)C3)CC2)c(F)cc1Nc1ncc2c(n1)N(C1CCCC1)CC(F)(F)C(=O)N2C (stereo not drawn) | NCI-H526 cell line | > 7.30 |

Noted for COc1cc(C(=O)NC2CCCN(C(=O)N3CCN(c4cccc5c4C(=O)N(C4CCC(=O)NC4=O)C5=O)CC3)C2)ccc1Nc1ncc2c(n1)N(C1CCCC1)CC(F)(F)C(=O)N2C (stereo not drawn) : its pIC50 reads > 7.30

Noted for COc1cc(C(=O)NC2CCN(C3CC4(CCN(c5cccc6c5C(=O)N(C5CCC(=O)NC5=O)C6=O)CC4)C3)CC2)c(F)cc1Nc1ncc2c(n1)N(C1CCCC1)CC(F)(F)C(=O)N2C (stereo not drawn) : its pIC50 reads > 7.00

Noted for COc1cc(C(=O)NC2CCN(C(=O)CCCOc3cccc4c3C(=O)N(C3CCC(=O)NC3=O)C4=O)CC2)ccc1Nc1ncc2c(n1)N(C1CCCC1)CC(F)(F)C(=O)N2C (stereo not drawn) : its pIC50 reads > 7.00

Noted for COc1cc(C(=O)N[C@H]2CCCN(C(=O)CN3CCN(c4cccc5c4C(=O)N(C4CCC(=O)NC4=O)C5=O)CC3)C2)ccc1Nc1ncc2c(n1)N(C1CCCC1)CC(F)(F)C(=O)N2C (stereo partly drawn) : its pIC50 reads > 7.30

Noted for COc1cc(C(=O)N(C)C2CCN(C(=O)CCN3CCN(c4cccc5c4C(=O)N(C4CCC(=O)NC4=O)C5=O)CC3)CC2)ccc1Nc1ncc2c(n1)N(C1CCCC1)CC(F)(F)C(=O)N2C (stereo not drawn) : its pIC50 reads > 7.00
